# viability listing for each entry below
Assay method text: reversal of MRP1-mediated doxorubicin resistance, pilot screen, H69AR cells, doxorubicin co-treatment (AID 601)
Assay context: H69AR cells + 2 uM doxorubicin, CellTiter-Glo, 72 h; measured here: viability with 2 uM doxorubicin; at 10 µM; stronger effect = lower value
Provide only the numeric value, understood in %.

Examples from the recorded data:
Compound: CC1CN(c2nc(-c3ccccc3)nc3ccccc23)CC(C)O1 (stereo unspecified)
viability / %: 80.9
--
Compound: CC(=O)Nc1ccc(S(=O)(=O)NCc2cn3c(C)csc3n2)cc1
viability / %: 81.3
--
Compound: C=Cn1nc(C)c2ccccc2c1=O
viability / %: 85.2
--
Compound: COCCNC(=O)c1cc2c(-c3ccccc3F)nn(C)c2s1
viability / %: 69.3
--
Compound: O=C(CS(=O)(=O)Cc1ccccc1)N1CCc2ccccc2C1
viability / %: 89.4

(Q) I am curious: what viability value has been reported for Cn1c(=O)c2c(nc(Br)n2CCSc2ncccn2)n(C)c1=O ?
(A) 81.1

====

Listed here are compounds together with their documented viability.
Assay method text: reversal of MRP1-mediated doxorubicin resistance, pilot screen, H69AR cells, doxorubicin co-treatment (AID 601)
Assay context: H69AR cells + 2 uM doxorubicin, CellTiter-Glo, 72 h; measured here: viability with 2 uM doxorubicin; at 10 µM; stronger effect = lower value
Record the value in %, omitting the unit from your answer.

Some solved cases for reference:
Compound: Cc1nc2nc(Cc3ccccc3)[nH]n2c(=O)c1Cc1ccccc1
viability, %: 87.4
//
Compound: CC(C)C(NC(=O)c1ccccc1NC(=O)c1ccco1)C(=O)O (stereo not given)
viability, %: 89.1
//
Compound: Cc1ccc(/C=N/n2nnnc2N)o1
viability, %: 84.5
//
Compound: CC(C)CSc1nc2ccccc2n1CC(N)=O
viability, %: 93.2
//
Compound: CN1CCN2c3ccccc3Cc3ccccc3C2C1 (stereo not given)
viability, %: 89.1
//
Compound: Cc1cc(C)c2c(CC(=O)NCc3ccco3)coc2c1
viability, %: 89.8

(Q) I would be grateful if you could share the reported viability for C=COC(=O)CSc1snc(SCC(=O)OC)c1C#N .
(A) 95.9

(Q) # get_value(readout='viability', item= O=C(NCc1ccc(F)cc1)C1CCN(C(=O)NCc2ccccc2)CC1 )
(A) 93.8

(Q) I have this compound here, COc1cc(-c2nn3c(-c4cccnc4)nnc3s2)cc(OC)c1OC , and I need its recorded viability.
(A) 85.8

(Q) # viability lookup, item O=C(CCn1c(=O)sc2ccccc21)Nc1nccs1
(A) 91.5

(Q) I have this compound here, CC(Oc1ccc(Br)cc1)C(=O)N1CCc2ccccc21 (stereo not given) , and I need its recorded viability.
(A) 87.6

(Q) Name the recorded viability for CCOC(=O)N1CCN(c2c(N3CCN(c4ccccc4OC)CC3)c(=O)c2=O)CC1 .
(A) 75.5

(Q) Fill blank: measured viability of the compound COc1ccc(OC)c(Nc2cc(-c3ccccc3)nc(N)n2)c1 is ____.
(A) 67.1

(Q) Which viability reading was recorded for the compound CC(=O)c1cc(C#N)c(SCC(=O)OC(C)C)nc1C ?
(A) 37.9

(Q) Returns the measured viability for the input compound. Input: CCC1CCCN1Cn1cnc2c([nH]c3ccc(OC)cc32)c1=O (stereo not given)
(A) 89.9

(Q) // returns reported viability for input COc1ccc(C2C(C(=O)c3sc(C)nc3C)=C(O)C(=O)N2CCN(C)C)cc1OC (stereo not given)
(A) 94.8

(Q) May I ask what viability has been recorded for CSc1ccccc1NC(=O)c1c(Br)cnn1C ?
(A) 94.2

(Q) Quick check: viability of CCOC(=O)c1ccc2[nH]c(C)c(CN3CCN(C)CC3)c(=O)c2c1 ?
(A) 91.8

(Q) What does the record list as viability for CCOC(=O)c1c(C)c(C(=O)NCC2CCCO2)c(C)n1C (stereo not given) ?
(A) 80.3

(Q) Reported viability for COc1cccc(OC)c1C(=O)n1nc(C)cc1C : what is it?
(A) 95.5

(Q) Which value of viability has been reported for CCOC(=O)C1C2C=CC3(CN(c4cccc(Cl)c4)C(=O)C13)O2 (stereo not given) in the records?
(A) 96.3

(Q) Look up viability: Cn1c2c(c(=O)n(C)c1=O)C(c1cccc(Br)c1)C1C(=O)c3ccccc3C1=N2 (stereo not given)
(A) 35.4

====

Assay method text: growth suppression of PTEN-deleted HCT116, pilot screen, cell-based, HCT116 clonal line, CellTiter-Glo (AID 824);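 note: 0% = 20 µM Hyamine control and 100% = vehicle cell control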
Assay context: 60 h, at 10 µM, stronger effect = lower value
Records with an inconclusive call do not appear. Calls of active or inactive are those of the source.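 How the source made its calls: active means viability at or below 27.92% in each of two runs, the all-compound median minus 4 SD; inconclusive means no clear call, values can overlap the other calls; inactive means the rest.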
In this section, each of the compounds is paired with its reported viability.

Compound: CCOC(=O)c1ccc(NC(=O)CSc2nnc(Cn3c(=O)sc4ccccc43)n2C)cc1
viability: 88.5% (inactive)

Compound: CC(=O)C(C)Oc1ccc2c3c(c(=O)oc2c1)CCCC3 (centres undefined)
viability: 91.1% (inactive)

Compound: COc1ccc(-n2nc3c(c2NC(=O)c2ccc(Br)cc2)CS(=O)C3)cc1 (centres undefined)
viability: 91.5% (inactive)

Compound: CCOC(=O)Cn1c(=O)oc2cc(S(=O)(=O)NC3CCCc4ccccc43)ccc21 (centres undefined)
viability: 92.2% (inactive)

Compound: CC1CCCCC1NC(=O)c1ccc(CNc2c(N3CCCC3)c(=O)c2=O)cc1 (centres undefined)
viability: 90.8% (inactive)

(Q) Any idea what viability was measured for CCN(CCCNS(=O)(=O)c1ccc2c(c1)CCN2C(C)=O)c1cccc(C)c1 ?
(A) 82.5% (inactive)

====

Assay method text: growth suppression of beta-catenin knockout HCT116, pilot screen, human colon tumor cells (AID 823);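 note: 0% = wells killed by 20 µM Hyamine and 100% = untreated DMSO cell wells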
Assay context: CellTiter-Glo, 60 h, at 10 µM, stronger effect = lower value
Records with an inconclusive call do not appear.
Listing: viability of selected molecules
The answer is to be given in %; state only the numeric part.

In the examples that follow, each entry is paired with its recorded viability.
Molecule: CCOc1ccccc1NC(=O)c1c(NC(=O)CNCc2ccco2)sc2c1CCC2
Value unit: %
viability: 76.7
//
Molecule: O=C(NCC(c1cccs1)N1CCOCC1)c1cc2ccccc2o1 (stereo not given)
Value unit: %
viability: 99.3
//
Molecule: COc1ccc(C(=O)/C(C)=N/O)cc1OC
Value unit: %
viability: 90.5
//
Molecule: Cn1c(C(=O)N2CCN(Cc3ccc4c(c3)OCO4)CC2)cc2c(=O)n(C)c3ccccc3c21
Value unit: %
viability: 67.9

(Q) What does the record list as viability for CCC(C)NC(=O)c1ccc(CS(=O)(=O)c2ccc(OC)cc2)o1 (stereo not given) ?
(A) 104

====

# maps each entry to its viability
Assay method text: growth suppression of beta-catenin knockout HCT116, pilot screen, human colon tumor cells (AID 823);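 note: 0% = wells killed by 20 µM Hyamine and 100% = untreated DMSO cell wells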
Assay context: CellTiter-Glo, 60 h, at 10 µM, stronger effect = lower value
Inconclusive results are not listed.
Reply with just the number (in %).

Look over these answered cases.
Molecule: COc1ccc(C2CC(c3ccc(Cl)cc3)n3nc(N)nc3N2)cc1 (stereo not drawn)
Measured result: 100
//
Molecule: CCCCCn1c(CNC(=O)CC)nc2ccccc21
Measured result: 97.5

Now for a further molecule.
(Q) Quick one: viability of CCOC(=O)c1cnc2ccc(C(=O)OC)cc2c1NCCN1CCOCC1 ?
(A) 86.6

====

Assay method text: reversal of MRP1-mediated doxorubicin resistance, pilot screen, H69AR cells, doxorubicin co-treatment (AID 601)
Assay context: H69AR cells + 2 uM doxorubicin, CellTiter-Glo, 72 h; measured here: viability with 2 uM doxorubicin; at 10 µM; stronger effect = lower value
Output MET for records whose viability is lower than 90%, NOT MET for records at or above 90%.

Use the examples below as a reference point.
Molecule: Oc1ccccc1C1=Nc2nc3ccccc3n2C(c2ccccc2)C1 (stereo not drawn)
Cat: MET
--
Molecule: CCOC(=O)[C@H](CCc1ccccc1)N[C@@H](C)C(=O)N1CCC[C@H]1C(=O)O
Cat: NOT MET

(Q) Criterion: viability strictly below 90%. Is it met by CC1CCN(Cc2ccc(-c3nn[nH]n3)cc2)CC1 ?
(A) NOT MET

====

Assay method text: HUVEC growth inhibition – cell-based, human, primary screen (AID 575);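 note: 100% = median of untreated cell wells with 0.1% DMSO on each plate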
Assay context: HUVEC proliferation, CellTiter-Glo luminescence, 72 h; at 10 µM; stronger effect = lower value
Below: a set of entries, each annotated with reported viability.
Unit % implied. Number only.

Compound: COc1cc(-c2nn3c(-c4cccnc4)nnc3s2)cc(OC)c1OC
Measured result: 90.3
//
Compound: COc1cccc(CNC(=O)C2CCN(C(=O)N(C)C)CC2)c1
Measured result: 90
//
Compound: O=C(CCN1C(=O)C2C3C=CC(C3)C2C1=O)NC1CCCc2ccccc21 (stereo not given)
Measured result: 76.7
//
Compound: Oc1ccc2[nH]cnc2c1CN1CCCCC1
Measured result: 107

Alright, here's another compound for you.
(Q) Returns the measured viability for the input compound. Input: COc1ccc(-n2nnc3c(=O)n(C/C=C/c4ccccc4)cnc32)cc1
(A) 105

Origin of the recorded values: PubChem BioAssay
